Test system: LOC_OS02G17970-cb001
Assay: thermal shift delta Tm vs DMSO control; higher = stronger stabilization (binding);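 note: purified Escherichia coli-expressed rice kinase domain construct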
Assay setup: 12.5 µM; protein concentration 2 µM
# thermal shift delta Tm per record follows
Only the number, expressed in °C, is required.

Recorded thermal shift delta Tm, per entry:
Compound	thermal shift delta Tm [°C]
N#Cc1c(Oc2ccc(F)c(NC(=O)Cc3cccc(C(F)(F)F)c3)c2)ccc2nc(NC(=O)C3CC3)sc12	0.88
Cc1c(NC(=O)c2ccc(C(C)(C)C)cc2)cccc1-c1cn(C)c(=O)c(Nc2ccc(C(=O)N3CCOCC3)cc2)n1	0.66
Cc1cc(Nc2cc(Cl)nc(Oc3ccc([N+](=O)[O-])cc3)n2)n[nH]1	0.46

Kindly indicate its recorded thermal shift delta Tm. Item: `CCS(=O)(=O)N1CCN(c2ccc(Nc3ncc(C(N)=O)c(NC4CC4)n3)cc2)CC1`
1.18

Using the record for `O=S(=O)(NCCNC/C=C/c1ccc(Br)cc1)c1cccc2cnccc12` , state its measured thermal shift delta Tm.
0.98

Note down thermal shift delta Tm recorded for OC1CCC(Oc2cccc3cnc(Nc4ccc5nc[nH]c5c4)nc23)CC1 (configuration not stated)
0.06

Name the recorded thermal shift delta Tm of the compound listed here: `C=CC(=O)Nc1cccc(Oc2nc(Nc3ccc(N4CCN(C)CC4)cc3)ncc2Cl)c1`
0

Name the recorded thermal shift delta Tm of the item O=C(O)c1cc(O)c2c(c1)[C@@H]([C@H]1c3cc(C(=O)O)cc(O)c3C(=O)c3c(O[C@@H]4O[C@H](CO)[C@@H](O)[C@H](O)[C@H]4O)cccc31)c1cccc(O[C@@H]3O[C@H](CO)[C@@H](O)[C@H](O)[C@H]3O)c1C2=O [Sennoside B] in your answer.
3.25

----------
Test system: LOC_OS01G21960-cb002
Assay: thermal shift delta Tm vs DMSO control; higher = stronger stabilization (binding)
Assay setup: 12.5 µM; protein concentration 2 µM
Outcome measure: thermal shift delta Tm (°C)
Respond numerically; units are °C and should not be typed.

> print(dat)
                                   compound  value.reported
1  CN1CCC(CNc2ccc3ncc(-c4cccc(OC(F)(F)F)c4)n3n2)CC1 [SGI-1776 free base]            2.41
2  Cn1c(=O)c(Oc2ccc(F)cc2F)cc2cnc(NC(CCO)CCO)nc21            0.89
3  O=C(NOCC(O)CO)c1cc(Br)c(F)c(F)c1Nc1ccc(I)cc1F (stereo unspecified)            1.44
4  COCCOc1cnc2ccn([C@H](C)c3nnc4c(F)cc(-c5cnn(C)c5)cn34)c(=O)c2c1            0.42

Give the measured thermal shift delta Tm for `COc1ncc(-c2ccc3nccc(-c4ccnnc4)c3c2)cc1NS(=O)(=O)c1ccc(F)cc1F`
1.2

Specify reported thermal shift delta Tm for the compound shown: `COc1ccc(-c2cc3c(C)nc(N)nc3n([C@H]3CC[C@H](OCCO)CC3)c2=O)cn1`
0.57

Return value of thermal shift delta Tm for input COc1cc(Nc2ncc(F)c(Nc3ccc4c(n3)N(COP(=O)(O)O)C(=O)C(C)(C)O4)n2)cc(OC)c1OC [R788 (Fostamatinib) Disodium] , no commentary.
1.94

State, in one line, measured thermal shift delta Tm of `Cc1ccc(F)c(NC(=O)Nc2ccc(-c3cccc4[nH]nc(N)c34)cc2)c1`
1.08

Indicate the recorded thermal shift delta Tm value for this compound: `C[C@H]1[C@H](C)CC[C@]2(C(=O)O)CC[C@]3(C)C(=CC[C@@H]4[C@@]5(C)C[C@@H](O)[C@H](O)[C@@](C)(CO)[C@@H]5CC[C@]43C)[C@H]12`
0.75

Fill in thermal shift delta Tm for record `O=C(NOCCO)c1ccc2cncn2c1Nc1ccc(I)cc1F`
0.59

Given the compound `Cc1ncc(CO)c(CO)c1O` , write its reported thermal shift delta Tm.
0.13

Query thermal shift delta Tm for `Cc1nc(Nc2cnn(C3CCNCC3)c2)nc2c1N(C)C(=O)c1cc3ccccc3cc1N2C`
0.66

Return reported thermal shift delta Tm. Input compound: `Cc1[nH]c(/C=C2\C(=O)Nc3ccc(S(=O)(=O)N(C)c4cccc(Cl)c4)cc32)c(C)c1C(=O)N1CCN(C)CC1`
0.44

Fill in thermal shift delta Tm for record `CN1CCC(Nc2nc(Nc3ccc(Oc4ccccc4)cc3)c3c(=O)[nH]cc(Br)c3n2)CC1`
2.71

----------
Test system: LOC_OS04G57630-cb004
Assay: thermal shift delta Tm vs DMSO control; higher = stronger stabilization (binding)
Assay setup: 12.5 µM; protein concentration 2 µM
Reported thermal shift delta Tm by item:
Note to self: number, then unit, no commentary.

> print(dat)
                                   molecule         outcome.measure  value.reported
1  CCNC(=O)Nc1ccc(-c2nc(N3CCOC[C@@H]3C)c3c(n2)C(C)(C)S(=O)(=O)C3)cc1  thermal shift delta Tm        -0.03 °C

Entry `CN(C)S(=O)(=O)c1ccc2c(c1)/C(=C/c1cc3c([nH]1)CCCC3)C(=O)N2` needs its thermal shift delta Tm filled in; supply it.
1.35 °C

For the molecule CCCCNc1ncc(-c2ccc(CN3CCOCC3)cn2)c(NC2CCC(O)CC2)n1 (stereo not drawn) , give its reported thermal shift delta Tm.
4.09 °C

----------
Parameter: thermal shift delta Tm. Scope: all listed entries.
Tested on: LOC_OS02G14120-cb001
Assay: thermal shift delta Tm vs DMSO control; higher = stronger stabilization (binding)
Assay setup: 12.5 µM; protein concentration 2 µM
Provide only the numeric value, understood in °C.

Some compounds with known thermal shift delta Tm results, for comparison:
> print(dat)
                                   compound         outcome.measure  unit.of.measure  value.reported
1  CN1CCN(C2CCN(C(=O)Nc3cc(Oc4ccc(NC(=O)C5(C(=O)Nc6ccc(F)cc6)CC5)c(F)c4)ccn3)CC2)CC1 [Golvatinib (E7050)]  thermal shift delta Tm               °C             0.6
2  CCn1c(=O)c(-c2ccc(Cl)cc2Cl)cc2cnc(Nc3ccc(N4CCNCC4)c(F)c3)nc21  thermal shift delta Tm               °C            7.16

Specify thermal shift delta Tm for `COc1ccc2c(Oc3ccc(NC(=O)c4c(C)n(CC(C)(C)O)n(-c5ccccc5)c4=O)nc3)ccnc2c1` , system LOC_OS02G14120-cb001.
5.4

Report the value of thermal shift delta Tm obtained on LOC_OS02G14120-cb001 for `Nc1ccc(-c2ccc3ncc4ccc(=O)n(-c5cccc(C(F)(F)F)c5)c4c3c2)cn1` .
1.62

----------
Tested on: LOC_OS03G27990-cb004
Assay: thermal shift delta Tm vs DMSO control; higher = stronger stabilization (binding)
Assay setup: 12.5 µM; protein concentration 2 µM
Label yes for high-side thermal shift delta Tm (at or above 0.1 °C) and no for low-side thermal shift delta Tm (below it).

Has CC1=C(C(=O)Nc2cc3cn[nH]c3cc2F)C(c2ccc(C(F)(F)F)cc2)CC(=O)N1 (configuration not stated) a recorded thermal shift delta Tm greater than or equal to 0.1 °C?
no

Does `CN(C)C/C=C/C(=O)Nc1ccc(C(=O)Nc2cccc(Nc3ncc(Cl)c(-c4c[nH]c5ccccc45)n3)c2)cc1` have a reported thermal shift delta Tm of at least 0.1 °C?
yes

Check the entry CCN(CC)CCNC(=O)c1c(C)[nH]c(/C=C2\C(=O)Nc3ccc(F)cc32)c1C [Sunitinib] : does thermal shift delta Tm equal or exceed 0.1 °C?
yes

Exam item: decide whether the reported thermal shift delta Tm for `COC(=O)Nc1ccc(-c2nc(N3CCOCC3)c3cnn(C4CCN(C(=O)OC)CC4)c3n2)cc1` is at least 0.1 °C.
no

Check if thermal shift delta Tm >= 0.1 °C (inclusive). Item: `C[C@@H]1CN(CC(=O)Nc2ccc3c(c2)Cc2cccc(-c4cc(=O)cc(N5CCOCC5)o4)c2S3)C[C@H](C)O1`
no

----------
System: LOC_OS02G08530-cb003
Assay: thermal shift delta Tm vs DMSO control; higher = stronger stabilization (binding)
Assay setup: 12.5 µM; protein concentration 2 µM
Outcome measure: thermal shift delta Tm (°C)
Enter your answer as a number in °C; do not include the unit.

Completed entries (count: 10):
Compound	thermal shift delta Tm / °C
Cc1cc(NC(=O)c2cccc(NC(=O)/C=C/CN(C)C)c2)ccc1Nc1nccc(-c2cccnc2)n1	1.8
COc1cc2nccc(Oc3ccc(NC(=O)Nc4cc(C)on4)c(Cl)c3)c2cc1OC	1.02
COc1ccc(Cl)cc1NC(=O)Nc1cc(C)nc2ccccc12	0.89
N#CC[C@H](C1CCCC1)n1cc(-c2ncnc3[nH]ccc23)cn1	1.14
Nc1[nH]nc2nnc(-c3c(-c4ccccc4)nn4ccccc34)cc12	2.11
CC[C@@H]1C(=O)N(C)c2cnc(Nc3ccc(C(=O)NC4CCN(C)CC4)cc3OC)nc2N1C1CCCC1	1.93
COc1cc2c(c(OC)c1OC)-c1c(cc3c(c1OC)OCO3)CC(C)C(C)C2 (stereo not given) [Schisandrin B (Sch B)]	0.6
CN(C)C[C@@H]1CCn2cc(c3ccccc32)C2=C(C(=O)NC2=O)c2cn(c3ccccc23)CCO1	1.19
Cc1ccc(C(=O)Nc2ccc(CN3CCN(C)CC3)c(C(F)(F)F)c2)cc1C#Cc1cnc2[nH]ncc2c1 [GZD824 Dimesylate]	3.54
Cc1ccc(NC(=O)c2cccc(N(C)C)c2)cc1NC(=O)c1ccc(O)cc1	1.03

Please report the measured thermal shift delta Tm for `CCn1c(=O)c(-c2ccc(-c3cncs3)cc2Cl)cc2cnc(Nc3ccc(N4CCN(C)CC4)cc3)nc21`
0.55

Supply measured thermal shift delta Tm of `NC(=O)c1cnc2[nH]ccc2c1N[C@@H]1[C@@H]2CC3C[C@H]1C[C@@](O)(C3)C2` in your reply.
3

Tell us which thermal shift delta Tm value is on record for `Cc1cc([C@@H](C)Nc2ccccc2C(=O)O)c2nc(N3CCOCC3)cc(=O)n2c1`
0.42

Identify measured thermal shift delta Tm associated with Clc1ccc(Nc2nnc(Cc3ccncc3)c3ccccc23)cc1 [Vatalanib (PTK787) 2HCl]
0.34

Please indicate thermal shift delta Tm recorded for `CO[C@H]1C[C@@H]2CC[C@@H](C)[C@@](O)(O2)C(=O)C(=O)N2CCCC[C@H]2C(=O)O[C@H]([C@H](C)C[C@@H]2CC[C@@H](OP(C)(C)=O)[C@H](OC)C2)CC(=O)[C@H](C)/C=C(\C)[C@@H](O)[C@@H](OC)C(=O)[C@H](C)C[C@H](C)/C=C/C=C/C=C/1C`
0.57

Specify reported thermal shift delta Tm for the compound shown: `O=C(c1cccc(Cl)c1F)N1CCN(Cc2cccc(Nc3nccs3)n2)CC1`
2.51

Note down thermal shift delta Tm recorded for `COc1cccc(-c2cc(=O)c3ccccc3o2)c1N`
0.37

Tell us which thermal shift delta Tm value is on record for `CNC(=O)c1cc(Oc2ccc(NC(=O)Nc3ccc(Cl)c(C(F)(F)F)c3)c(F)c2)ccn1`
0.93

Please supply the value of reported thermal shift delta Tm for the item `Cn1cc(-c2ccc3c(c2)CCN3C(=O)Cc2cccc(C(F)(F)F)c2)c2c(N)ncnc21`
1.06

Fill in thermal shift delta Tm for record `CCOc1cc2ncc(C#N)c(Nc3ccc(OCc4ccccn4)c(Cl)c3)c2cc1NC(=O)/C=C/CN(C)C`
1

Assign thermal shift delta Tm to the following record: CCOc1cc2ncc(C#N)c(Nc3ccc(F)c(Cl)c3)c2cc1NC(=O)/C=C/CN(C)C [Pelitinib (EKB-569)]
0.59

In one line, give reported thermal shift delta Tm of the entry `COc1cc2c(cc1OC)[C@@H]1C(=O)c3ccc4c(c3O[C@@H]1CO2)C=CC(C)(C)O4` .
0.83

For the compound `Cc1nc(Nc2cnn(C3CCNCC3)c2)nc2c1N(C)C(=O)c1cc3ccccc3cc1N2C` , give its measured thermal shift delta Tm value.
1.07

Could you please provide reported thermal shift delta Tm for `Nc1cccc(-c2cc3c(Oc4cccc(O)c4)ncnc3[nH]2)c1` ? Thanks!
1.94

Quote thermal shift delta Tm reported for `NC(=O)c1ccc(N(C(N)=O)c2c(F)cccc2F)nc1-c1ccc(F)cc1F` please.
0.7

Cited source: the supplement of paper PMC9694430
